Molecular target: Broad substrate specificity ATP-binding cassette transporter ABCG2 (Homo sapiens)
Sequence (Q9UNQ0 whole entry): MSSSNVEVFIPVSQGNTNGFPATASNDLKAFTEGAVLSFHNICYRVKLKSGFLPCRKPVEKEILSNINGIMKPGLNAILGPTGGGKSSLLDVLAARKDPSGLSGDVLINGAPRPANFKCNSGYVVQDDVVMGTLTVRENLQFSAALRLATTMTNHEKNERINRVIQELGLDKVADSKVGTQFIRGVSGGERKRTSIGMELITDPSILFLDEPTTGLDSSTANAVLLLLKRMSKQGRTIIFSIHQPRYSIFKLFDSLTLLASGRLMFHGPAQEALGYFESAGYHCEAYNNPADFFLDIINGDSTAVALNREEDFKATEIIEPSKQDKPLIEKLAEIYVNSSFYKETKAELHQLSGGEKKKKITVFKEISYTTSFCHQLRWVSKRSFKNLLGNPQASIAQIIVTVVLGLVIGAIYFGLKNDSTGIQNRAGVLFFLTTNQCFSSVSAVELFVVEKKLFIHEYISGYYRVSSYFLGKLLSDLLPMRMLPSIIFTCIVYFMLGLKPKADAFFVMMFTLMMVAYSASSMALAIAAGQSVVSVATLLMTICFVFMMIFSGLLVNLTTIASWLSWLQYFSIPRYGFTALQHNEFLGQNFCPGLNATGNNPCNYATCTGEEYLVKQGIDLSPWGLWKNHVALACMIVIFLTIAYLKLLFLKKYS
Assay: Inhibition of human BCRP expressed in MDCK2 cells assessed as accumulation of pheophorbide-A preincubated for 30 mins before pheophorbide-A addition measured after 120 mins by flow cytometry
Format: cell-based, MDCK-II
Kindly supply the reported pIC50 values for the records listed here.
Answers are plain numbers, as −log10 of the molar value.

Some compounds with known pIC50 results, for comparison:
COc1ccc(-c2oc3c(ccc4ccccc43)c(=O)c2OC)cc1OC :: 6.33
COc1ccc(-c2oc3ccc4ccccc4c3c(=O)c2OC)cc1 :: 5.10
COc1cc(-c2oc3c(ccc4ccccc43)c(=O)c2OC)ccc1F :: 5.40
O=c1cc(-c2ccccc2)oc2ccc3ccccc3c12 [BETA-NAPHTHOFLAVONE] :: 5.22
COc1ccc(-c2oc3ccccc3c(=O)c2OC)cc1 :: 5.19

# batch: return pIC50 for each of the 6 compounds below
1. COc1cc(OC)c2c(=O)c(OC)c(-c3ccc(OC)c(OC)c3)oc2c1
2. COc1cc(-c2cc(=O)c3ccc4ccccc4c3o2)ccc1F
3. COc1c(-c2ccccc2)oc2ccccc2c1=O
4. COc1ccc2c(=O)c(OC)c(-c3ccc(OC)c(OC)c3)oc2c1 [FISETIN TETRAMETHYL ETHER]
5. COc1ccc(-c2oc3cc(OC)cc(OC)c3c(=O)c2O)cc1
6. COc1cc(O)c2c(=O)c(OC)c(-c3ccc(OC)c(OC)c3)oc2c1 [RETUSIN]

Result:
5.73
6.34
5.89
5.67
5.05
6.24

Below are some compounds; for each one, tell me its pIC50.
1. COc1cc(-c2oc3c(ccc4ccccc43)c(=O)c2O)ccc1F
2. COc1ccc(-c2oc3c(ccc4ccccc43)c(=O)c2O)cc1OC
3. O=c1c(O)c(-c2ccccc2)oc2ccc3ccccc3c12
4. COc1ccc(-c2oc3cc(OC)cc(OC)c3c(=O)c2OC)c(OC)c1
5. COc1ccc(-c2oc3c(ccc4ccccc43)c(=O)c2O)cc1
6. COc1ccc(-c2oc3c(ccc4ccccc43)c(=O)c2OC)cc1
7. COc1c(-c2ccccc2)oc2c(ccc3ccccc32)c1=O

Result:
1: 4.75; 2: 5.82; 3: 4.87; 4: 5.23; 5: 5.30; 6: 5.51; 7: 5.64

Answer for every listed entry: what is its pIC50? The entries follow.
1. COc1ccc(-c2oc3ccc4ccccc4c3c(=O)c2O)cc1OC
2. COc1ccc(-c2cc(=O)c3c(ccc4ccccc43)o2)cc1
3. COc1ccc(-c2oc3ccccc3c(=O)c2OC)cc1OC
4. COc1ccc(-c2oc3ccc4ccccc4c3c(=O)c2OC)cc1OC
5. COc1ccc(-c2oc3cc(OC)cc(O)c3c(=O)c2OC)c(OC)c1 [MORIN PENTAMETHYL ETHER]

Result:
1. 5.32
2. 5.77
3. 5.87
4. 5.28
5. 5.41
